Target: human PCSK9 (Homo sapiens)
Sequence (Q8NBP7 153-692): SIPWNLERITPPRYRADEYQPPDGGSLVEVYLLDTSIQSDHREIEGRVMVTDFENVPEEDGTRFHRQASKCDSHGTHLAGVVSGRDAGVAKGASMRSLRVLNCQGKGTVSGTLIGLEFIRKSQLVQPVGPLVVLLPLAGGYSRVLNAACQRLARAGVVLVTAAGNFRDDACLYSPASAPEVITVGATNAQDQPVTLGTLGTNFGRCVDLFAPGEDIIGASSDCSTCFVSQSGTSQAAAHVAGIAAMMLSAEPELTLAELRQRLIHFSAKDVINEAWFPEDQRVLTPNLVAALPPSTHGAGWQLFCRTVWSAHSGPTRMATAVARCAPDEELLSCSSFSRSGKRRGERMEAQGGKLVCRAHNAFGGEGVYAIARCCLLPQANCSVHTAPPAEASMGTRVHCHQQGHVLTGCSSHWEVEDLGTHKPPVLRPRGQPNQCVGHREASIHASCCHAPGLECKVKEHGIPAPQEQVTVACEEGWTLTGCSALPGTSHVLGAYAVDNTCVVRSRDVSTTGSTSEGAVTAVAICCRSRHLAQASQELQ
Sequence (Q8NBP7 31-152 partner limits assumed): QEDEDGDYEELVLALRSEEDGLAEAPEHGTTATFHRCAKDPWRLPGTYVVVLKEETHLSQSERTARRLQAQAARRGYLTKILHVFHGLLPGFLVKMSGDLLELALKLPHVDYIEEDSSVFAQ
Experiment: PCSK9 ligand binding assay (TR-FRET): interference with binding of human PCSK9 to human LDLR
Settings: Human PCSK9 Alexa Fluor 647 / Human LDLR extracellular domain-Europium Kryptate
Procedure: Example 10: PCSK9 Ligand Binding Assay The PCSK9 binding of the compounds of the disclosure were measured using a time resolved fluorescence resonance energy transfer (TR-FRET) assay. This time resolved fluorescence resonance energy transfer (TR-FRET) assay measures the ability of a compound of the present disclosure to interfere with the binding of human PCSK9 to human LDLR, providing measures of both potency (IC50) and efficacy (Amax). Human PCSK9 Alexa Fluor 647 […]
# IC50 values compiled below
readout_type: IC50 (nM)

chemical_string=CC[C@@H]1CC(=O)N(Cc2c(OCC(F)(F)F)cc(Cl)cc2Oc2ccc(-c3cnc(CN4CCCC4)n3C)cc2)[C@@H](C)C(=O)N[C@@H](CO)C(=O)N(C)[C@H](Cc2ccc(Cl)cc2)CNC1=O.Cl recorded_measurement=13.5
chemical_string=C[C@H]1C(=O)N[C@@H](CO)C(=O)N[C@@]2(Cc3ccc(Cl)cc3)CCCN(C2)C(=O)[C@H](CC(F)(F)F)CC(=O)N1Cc1c(F)cc(Cl)cc1Oc1ccc(-c2cnc(CN3CCCC3)n2C)cc1 recorded_measurement=0.342
chemical_string=COC[C@@H]1NC(=O)[C@H](C)N(Cc2ccc(Cl)cc2Oc2ccc(-c3cnc(CN(C)C)n3C)cc2)C(=O)C[C@@H](Cc2ccccn2)C(=O)N2CCC[C@@](Cc3ccc(Cl)cc3)(C2)NC1=O recorded_measurement=0.47
